assay: melting temperature; fluorescence melt of hairpins on a sequencing array, two-state fit, raised by 9.35 °C to match UV melts; conditions: sodium 0.088 M
Decide by Tm: equal to or exceeding 50 °C means Met, less means Not met.

[[record]]
sequence_chain = "GCGTATCCACGC ((((....))))"
class_name = "Met"

[[record]]
sequence_chain = "CGAATCGGAAACGACTCG (((.(((....))).)))"
class_name = "Not met"

[[record]]
sequence_chain = "GAGCACGAAAGTGACTC ((((((....))).)))"
class_name = "Not met"

[[record]]
sequence_chain = "GATGGTGGAAACACTGTC ((..(((....)))..))"
class_name = "Not met"

[[record]]
sequence_chain = "GGTTGTACGAAAGTAACC (((..(((....))))))"
class_name = "Not met"

[[record]]
sequence_chain = "GTAATCCGAAAGGACTAC (((.(((....))).)))"
class_name = "Not met"

[[record]]
sequence_chain = "GGCGATCGAAAGATGGCC (((.(((....))).)))"
class_name = "Met"

[[record]]
sequence_chain = "GATCTTGATGAAGATC ((((((....))))))"
class_name = "Not met"

[[record]]
sequence_chain = "GATCTTGTCAAAGATC ((((((....))))))"
class_name = "Met"

[[record]]
sequence_chain = "GCCGCACCGAAAGGTGGC (((..(((....))))))"
class_name = "Met"

[[record]]
sequence_chain = "GTTACCGAAAGGTAAC ((((((....))))))"
class_name = "Met"

[[record]]
sequence_chain = "GCCTCGCGAAAGCGGTGC ((..(((....)))..))"
class_name = "Not met"

[[record]]
sequence_chain = "GAGCTGAAAAGCTC (((((....)))))"
class_name = "Met"

[[record]]
sequence_chain = "GACTCCGAAAGGATAGTC ((((((....)))..)))"
class_name = "Not met"

[[record]]
sequence_chain = "GGCTTTGCGAAAGCAGCC (((..(((....))))))"
class_name = "Met"

[[record]]
sequence_chain = "GTTCGCGAAAGCGGTAAC ((((((....)))..)))"
class_name = "Not met"

[[record]]
sequence_chain = "GTTTGCTCGAAAGAGAAC (((..(((....))))))"
class_name = "Not met"

[[record]]
sequence_chain = "GCAAGTGGAAACACCTGC (((.(((....))).)))"
class_name = "Not met"


====

// reported folding enthalpy for each item listed
test: folding enthalpy; higher = less favourable; fluorescence melt of hairpins on a sequencing array, two-state fit; conditions: sodium 0.088 M
experimental.readout: folding enthalpy

[[record]]
sequence_chain = "GGAAGTCGAAAGACCTCC (((.(((....))).)))"
experimental_readout = "folding enthalpy"
observed_measurement = "-27.1 kcal/mol"

[[record]]
sequence_chain = "GCGCCGGGAAACCGGCAC (.(((((....))))).)"
experimental_readout = "folding enthalpy"
observed_measurement = "-8.63 kcal/mol"

[[record]]
sequence_chain = "GGGTACGAAAGTAACCCC ((((((....)))..)))"
experimental_readout = "folding enthalpy"
observed_measurement = "-21.9 kcal/mol"

[[record]]
sequence_chain = "GCTATGGGAAACTATAGC (((((.(....).)))))"
experimental_readout = "folding enthalpy"
observed_measurement = "-33.3 kcal/mol"

[[record]]
sequence_chain = "GCTACGCGAAAGCCTCGC ((.(.((....)).).))"
experimental_readout = "folding enthalpy"
observed_measurement = "-7.35 kcal/mol"

[[record]]
sequence_chain = "GGCCAGCGAAAGCTAGCC (((.(((....))).)))"
experimental_readout = "folding enthalpy"
observed_measurement = "-29.6 kcal/mol"

[[record]]
sequence_chain = "GTTGCGACGAAAGTCAAC (((..(((....))))))"
experimental_readout = "folding enthalpy"
observed_measurement = "-16.8 kcal/mol"

[[record]]
sequence_chain = "GCCTTAGGAAACTGAGGC ((((.((....)).))))"
experimental_readout = "folding enthalpy"
observed_measurement = "-41.7 kcal/mol"

[[record]]
sequence_chain = "GGATTCGAAAGAATTCC ((((((....))).)))"
experimental_readout = "folding enthalpy"
observed_measurement = "-20.4 kcal/mol"

[[record]]
sequence_chain = "GGTTCTGGAAACGGAATC (.(((.(....).))).)"
experimental_readout = "folding enthalpy"
observed_measurement = "-18.7 kcal/mol"

[[record]]
sequence_chain = "GATCCCGGAAACGGAATC (((.(((....))).)))"
experimental_readout = "folding enthalpy"
observed_measurement = "-24.7 kcal/mol"

[[record]]
sequence_chain = "GTCATCGCGAAAGCGGAC (((..(((....))))))"
experimental_readout = "folding enthalpy"
observed_measurement = "-11.1 kcal/mol"

[[record]]
sequence_chain = "GCACCAGGAAACTGGCGC ((.((((....)))).))"
experimental_readout = "folding enthalpy"
observed_measurement = "-41.4 kcal/mol"

[[record]]
sequence_chain = "CCTATGAAAATAGG (((((....)))))"
experimental_readout = "folding enthalpy"
observed_measurement = "-14.2 kcal/mol"

[[record]]
sequence_chain = "GACTTCGGAAACAAAGTC (((((.(....).)))))"
experimental_readout = "folding enthalpy"
observed_measurement = "-25.6 kcal/mol"

[[record]]
sequence_chain = "GCCGTTGCGAAAGCAGGC (((..(((....))))))"
experimental_readout = "folding enthalpy"
observed_measurement = "-31.7 kcal/mol"

[[record]]
sequence_chain = "GTACGTCGAAAGACATAC (((.(((....))).)))"
experimental_readout = "folding enthalpy"
observed_measurement = "-20.1 kcal/mol"

[[record]]
sequence_chain = "GAGCTGGCGAAAGCCCTC (((..(((....))))))"
experimental_readout = "folding enthalpy"
observed_measurement = "-5.81 kcal/mol"

[[record]]
sequence_chain = "GATCTAACCTTAGATC ((((((....))))))"
experimental_readout = "folding enthalpy"
observed_measurement = "-39.6 kcal/mol"

[[record]]
sequence_chain = "GATTTCACGAAAGTGATC (((..(((....))))))"
experimental_readout = "folding enthalpy"
observed_measurement = "-9.78 kcal/mol"

[[record]]
sequence_chain = "GCAGACACGAAAGTGTGC (((..(((....))))))"
experimental_readout = "folding enthalpy"
observed_measurement = "-15.3 kcal/mol"

[[record]]
sequence_chain = "GCGGGAAACCGC ((((....))))"
experimental_readout = "folding enthalpy"
observed_measurement = "-22.9 kcal/mol"

[[record]]
sequence_chain = "GCTGACGGAAACGTCGGC ((.((((....)))).))"
experimental_readout = "folding enthalpy"
observed_measurement = "-48.3 kcal/mol"

[[record]]
sequence_chain = "GCCCTGCGAAAGCACGGC (((.(((....))).)))"
experimental_readout = "folding enthalpy"
observed_measurement = "-39.6 kcal/mol"

[[record]]
sequence_chain = "GGCTGAGGAAACCCAGCC (((((.(....).)))))"
experimental_readout = "folding enthalpy"
observed_measurement = "-41.9 kcal/mol"

[[record]]
sequence_chain = "GATGACGGAAACGTTATC (((.(((....))).)))"
experimental_readout = "folding enthalpy"
observed_measurement = "-29.6 kcal/mol"

[[record]]
sequence_chain = "GTTCTTACGAAAGTAAAC (((..(((....))))))"
experimental_readout = "folding enthalpy"
observed_measurement = "-6.21 kcal/mol"

[[record]]
sequence_chain = "GCTCAGCGAAAGCTCGGC ((..(((....)))..))"
experimental_readout = "folding enthalpy"
observed_measurement = "-14.5 kcal/mol"

[[record]]
sequence_chain = "GGAAACACGAAAGTGTCC (((..(((....))))))"
experimental_readout = "folding enthalpy"
observed_measurement = "-12.6 kcal/mol"

[[record]]
sequence_chain = "GTAGCAGGAAACTGCTGC (.(((((....))))).)"
experimental_readout = "folding enthalpy"
observed_measurement = "-26.2 kcal/mol"

[[record]]
sequence_chain = "GAGCGTGGAAACGCGTTC ((.((.(....).)).))"
experimental_readout = "folding enthalpy"
observed_measurement = "-12.1 kcal/mol"

[[record]]
sequence_chain = "GAGGAGCGAAAGCTCTC (((.(((....))))))"
experimental_readout = "folding enthalpy"
observed_measurement = "-9.17 kcal/mol"


These data points were gathered from the array DNA melting data of Ke et al. (doi:10.1101/2024.01.08.574731).
